OUTCOME_MEASURE: melting point (°C)

C=C1CC1CC(N)C(=O)O (stereo not drawn) :: 282
CNc1ccncc1 :: 126
Cc1ccc(NC(=O)C(C(F)(F)F)C(F)(F)F)cc1C :: 189
COc1cc2c(cc1C(C)C)C(=O)C2 :: 43
Clc1cc(Cl)c2c(oc3ccc(Cl)c(Cl)c32)c1Cl :: 210
ClCCCc1ccccc1 :: -27
CCCCC=CCCCCCCCCOC(C)=O :: 1.3
CCCCCCF :: -103
CC(=O)c1cc(C(C)=O)c(N)cc1N :: 235

---

The compounds listed here are annotated with their melting point.
OUTCOME_MEASURE: melting point (°C)

O=S(=O)(Cl)C(Cl)(Cl)Cl :: 140
COc1ccc(C(=O)CCC(=O)O)cc1 :: 149
Oc1c(-c2ccccc2)cccc1-c1ccccc1 :: 102
CS(=O)(=O)OCCC(=O)N1CCN(C(=O)CCOS(C)(=O)=O)CC1 :: 175
CCCCCCCCCCF :: -35
CC(C)COC(=O)c1ccc(N)cc1 :: 64.5
CCCC(C)O (stereo not drawn) :: -73
COc1cc2c(cc1OC)C(c1ccc(C)o1)SC(c1ccc(C)o1)=N2 (stereo not drawn) :: 148
Cc1ccc(S(=O)(=O)OCC(F)(F)F)cc1 :: 40
c1ccc(C(CCN2CCCCC2)c2ccccc2)cc1 :: 41

---

OUTCOME_MEASURE: melting point (°C)

C1CCCCCC2OC2CCCC1 (centres undefined) :: -7
N#CC1CC2CCC1C2 (centres undefined) :: 44
CC(=O)NC(C)C(=O)O (racemic) :: 137
CC(=O)Oc1ccccc1-c1ccccc1 :: 65
O=Cc1ccc(O)c(Br)c1 :: 127
CCc1ccccc1Cc1ccccc1N :: 35
N#C/C(=C/c1cccs1)c1nc(-c2ccc(Cl)cc2)cs1 :: 170
S=C=Nc1ccc(Cl)c(Cl)c1Cl :: 69.5

---

Exam item: assign Criterion met to entries whose melting point is below 80 °C and Criterion not met to entries at or above 80 °C. Note that a value of exactly 80 °C receives Criterion not met.

COC(=O)c1ccc2ccccc2c1 :: Criterion met
CNc1ccccc1C(=O)O :: Criterion not met
N=C1NC(=O)C(=NNc2ccc(Br)cc2)S1 :: Criterion not met
O=[N+]([O-])c1ccc(Cl)c(C(F)(F)F)c1 :: Criterion met
O=C(O)c1cccnc1Sc1ccc(Cl)cc1 :: Criterion not met
CCN1C(=O)OC(C)(C)C1=O :: Criterion met

---

Overview of recorded melting point for various molecules
OUTCOME_MEASURE: melting point (°C)

Cc1cccc(/N=N/c2c(N)nn3c(C(F)(F)F)cc(=O)[nH]c23)c1 :: 280
C/C=C/C(=O)OC :: -42
Cc1cc(C)c2c(c1)CC1CCCCN1C2=O (stereo unspecified) :: 102
NC(=S)Nc1ccccc1Cl :: 146
ClCCCCCCCCCCCCCl :: 29
O=[N+]([O-])c1cccc(-c2nnc3n2NC(c2ccccc2O)S3)c1 (stereo unspecified) :: 210
c1ccc(-c2cccs2)nc1 :: 63
OC(c1ccc(Cl)cc1)(c1ccc(Cl)cc1)c1ccc(Cl)cc1 :: 95.5
O=C(CCC1=NC=NC1)NCCc1c[nH]cn1 :: 164
N#C/C(=N\Nc1ccc(F)cc1)c1nc2ccccc2c(=O)[nH]1 :: 215
CC(=Cc1ccccc1)C(=O)O :: 80
COc1ccc(NN=C2C(=O)NC(=O)NC2=O)cc1 :: 264

---

OUTCOME_MEASURE: melting point (°C)

Cc1ccc2c(C)c(C)ccc2c1 :: 14
COc1cccc2c(=O)c3c(n(C)c12)OC(C(C)C)C3 (stereo not given) :: 119
O=C(C(=S)Nc1ccccc1Cl)c1ccccc1 :: 119
O=[N+]([O-])c1ccc(ON=Cc2cc(Br)c(O)c(Br)c2)c([N+](=O)[O-])c1 :: 196
CC(C)CCCC(C)C1CCC2C3CC=C4CC(OC(=O)Cc5ccc(N(CCCl)CCCl)cc5)CCC4(C)C3CCC12C (stereo not given) :: 90
CC(=O)Nc1ccc(OCC(O)CNC(C)C)cc1 (stereo not given) :: 135
Nc1nc(-c2cccc3ccccc23)cs1 :: 157
O=C(O)Cc1ccc(Cl)cc1Cl :: 129
CCCCCCCC(C)=O :: -7.5
CC12CCC(C(C(Br)N(O)c3ccccc3)C1=O)C2(C)C (stereo not given) :: 121
O=C1NC(=O)C(=Cc2ccc(-c3ccccc3Br)o2)C(=O)N1 :: 255
O=[N+]([O-])c1ccccc1N=C=S :: 75
CC[C@H](N)P(=O)(O)O :: 260
N#Cc1ccc(C=Cc2cccc(C=Cc3ccc(C#N)cc3[N+](=O)[O-])c2)c([N+](=O)[O-])c1 :: 298
COc1c(OC)c(OC(C)=O)c2cc(Br)ccc2c1OC(C)=O :: 102
O=C1OC(OC(=O)C(F)(F)F)c2ccccc21 (stereo not given) :: 58
CN(C)c1ccc(C=CC(=O)c2ccccc2)cc1 :: 114
CCOC1Oc2ccc(OS(C)(=O)=O)cc2C1(C)C (stereo not given) :: 71
Nc1cc(Cl)c([N+](=O)[O-])cc1Cl :: 155
Nc1ncn(C2OC(CO)C(O)C2O)c(=O)n1 (stereo not given) :: 229
Nc1cc2c(cc1C=Cc1ccccc1)CC(c1ccccc1)N2 (stereo not given) :: 163
O=Cc1ccc(O)c(OC(F)(F)F)c1 :: 78
CCCCCCCCCCCCCCCN :: 37.3
OCCOc1cccc2ccccc12 :: 45
O=Cc1ccc2c(c1)C(=O)c1c(Cl)c(Cl)c(Cl)c(Cl)c1C2=O :: 183
O=c1[nH]c2ccccc2nc(C(F)(F)F)c1=NNc1cc(-c2ccccc2)n[nH]1 :: 159

---

Entries whose melting point is below 200 °C take Condition met; entries at or above 200 °C take Condition not met.

CN(C(=O)CN(CCO)CC(=O)N(C)C(C)(C)Cc1ccccc1)C(C)(C)Cc1ccccc1 :: Condition met
CCCC(O)C1(C)CCC(C(=O)O)C(C)(C)O1 (stereo not drawn) :: Condition met
CC(=O)Nc1cc(CCNC(=O)c2ccccc2)c(NC(C)=O)cc1CCNC(=O)c1ccccc1 :: Condition not met
COC1CCCCCCCCCCC1 :: Condition met
CN1CCC23c4c5ccc(O)c4OC2C(=O)CCC3(O)C1C5 (stereo not drawn) :: Condition not met
Cc1c(CN2CCOC(c3ccccc3)C2C)c(=O)n(-c2ccccc2)n1C (stereo not drawn) :: Condition met
CC(C)C(O)(c1ccc(OC(F)(F)F)cc1)c1cncnc1 (stereo not drawn) :: Condition met
Cn1c2cc(N3CCCC3)cc(-c3ccccc3)c2c(=O)n1-c1ccccc1 :: Condition met
O=C(Nc1ccc(Cl)c(Cl)c1)c1cc(Cl)ccc1O :: Condition not met
O=C(O)c1ccncc1C(=O)O :: Condition not met
N=C(N)S(=O)O :: Condition met
CCc1oc2ccccc2c1C(=O)c1cc(I)c(O)c(I)c1 :: Condition met
CC(=O)Oc1cc(OC(C)=O)c2c(=O)c(OC(C)=O)c(-c3ccc(OCc4ccccc4)cc3)oc2c1 :: Condition met

---

Here the recorded melting point is given for each entry.
OUTCOME_MEASURE: melting point (°C)

CC12CCC(=O)C=C1CCC1C2CCC2(C)CCCC12O (stereo not drawn) :: 180
Cc1ccc2c(c1)OC(C)(c1ccc(C)cc1OC(=O)c1ccccc1)CC2(C)C (stereo not drawn) :: 149
CCCCCCCCCOc1ccc(N)cc1 :: 39
O=c1[nH]cc(Br)c(=O)[nH]1 :: 310
O=C(O)C1OC(OCC(Cl)(Cl)Cl)C(O)C(O)C1O (stereo not drawn) :: 142
CC(C)SC(C)C :: -78.1
O=C1c2ccccc2CC2CCCCN12 (stereo not drawn) :: 97
c1csc(SSc2cccs2)c1 :: 55
C(COCCOCC1CO1)OCCOCC1CO1 (stereo not drawn) :: -13
CC(=O)C(=CN)Cc1ccccc1 :: 95
NC(=O)c1ccc(F)c(Cl)c1 :: 146

---

OUTCOME_MEASURE: melting point

Cc1c(Br)cc(N)cc1Br :: 91 °C
CC(=O)c1ccccc1O :: 5 °C
FC(F)(F)C(F)(C(F)(F)F)C(F)(C(F)(F)F)C(F)(F)F :: -16.7 °C
O=[N+]([O-])c1cccc(N=C=S)c1 :: 58 to 60 °C
O=C1NCC(CCl)O1 (configuration not stated) :: 101 to 105 °C
CCOC(=O)Cn1cc(Cl)c(=O)c(Cl)c1 :: 209 to 211 °C
O=C(O)C1CC(=O)N(Cc2ccc(F)cc2)C1 (configuration not stated) :: 150 to 151 °C
CCCCCCN(C)C(=O)COC(=O)c1ccccc1 :: 100 °C
Cc1ccccc1C=CC(=O)O :: 175 to 177 °C
O=C(OCC1CCC2OC2C1)C1CCC2OC2C1 (configuration not stated) :: -37 °C
CCCCCCCC1CCCC1 :: -53 °C
Cc1oncc1I :: 27 to 28 °C
C#CC(C)OC(=O)Nc1cccc(Cl)c1 (configuration not stated) :: 45.5 °C
CC(C)(C)c1cc(C(=S)NC2CCCCC2)cc(C(C)(C)C)c1O :: 217 to 218 °C
Clc1nccc(-c2ccco2)n1 :: 81.5 to 82.5 °C
COc1ccc(-c2ccc(S(=O)(=O)NC(C(=O)O)C(C)C)cc2)cc1 (configuration not stated) :: 178 °C
Cc1cc(Br)c(Br)cc1C :: 86 °C
CCCCCC(=O)OC1(C(C)=O)CCC2C3CCC4=CC(=O)CCC4C3CCC21C (configuration not stated) :: 124 °C
COc1cc(-c2ccccc2)c(C)cc1N :: 65 to 67 °C
O=c1ccn(C2CC(F)C(CO)O2)c(=O)[nH]1 (configuration not stated) :: 186 °C
Brc1cccc(Br)c1Oc1ccccc1 :: < 20 °C
CCC(=O)N(C)C :: -45 °C
NC(CS(=O)(=O)Cc1ccc(F)cc1)=NO :: 182 to 185 °C
O=C(CNc1ccccc1)c1ccc(C(=O)CNc2ccccc2)cc1 :: > 200 °C
CN1CC(C(=O)O)CC1=O (configuration not stated) :: 152 °C
Cc1ccccc1N1C(=O)c2cc(S(N)(=O)=O)c(Cl)cc2NC1C (configuration not stated) :: 252 °C
Cc1cc([N+](=O)[O-])ccc1I :: 102 °C
C=CCNC(N)=S :: 78 °C
O=C(Nc1ccccc1)OCc1c([N+](=O)[O-])cccc1[N+](=O)[O-] :: 138 °C
O=C(O)C1CCCCN1 (configuration not stated) :: 277 °C
Cc1ccc(-c2cc[nH]n2)cc1 :: 82 to 86 °C
CC(=O)c1c(O)cccc1OCCC(C)C :: 25 to 27 °C
CC(C)C12C=CC(C)(CC1)OO2 (configuration not stated) :: 3.3 °C
O=C(NCc1ccccc1)C(C(F)(F)F)C(F)(F)F :: 194 °C
COc1cc(C(=O)Oc2ccc(/C=C/C(=O)c3ccccc3)cc2)cc(OC)c1OC :: 95 °C
NC(=O)Nc1ccc(Cl)cc1 :: 206 °C
NC(=S)NCCCN1CCOCC1 :: 129 to 131 °C
N#C/C(=N\Nc1cc(Cl)c(Cl)cc1Cl)c1nc2ccccc2s1 :: 214 °C
Cc1cc(=O)[nH]c2c(/N=N/c3ccc(O)cc3)c(N)nn12 :: 285 °C
CC(C)(C)OC(=O)N[C@@H](CCC(=O)OCc1ccccc1)C(=O)O :: 65 to 68 °C
FC(F)(F)C(Cl)Br (configuration not stated) :: -118 °C
COc1ccccc1-c1nnc2n1NC(c1ccc(N(C)C)cc1)S2 (configuration not stated) :: 228 to 230 °C
N#CC1=C(N)Oc2c(c(C(F)(F)F)nn2-c2ccccc2)C1c1ccc(Cl)cc1Cl (configuration not stated) :: 210 °C
CC1CCC2C(C)C3C(CC4C5CC=C6CC(O)CCC6(C)C5CCC43C)N2C1 (configuration not stated) :: 218 °C
COC(=O)Cc1ccc(O)cc1 :: 57 °C
CC(=O)OC12COC1CC(O)C1(C)C(=O)C(O)C3=C(C)C(O)CC(O)(C(OC(=O)c4ccccc4)C21)C3(C)C (configuration not stated) :: 231 to 236 °C
Brc1cccc(N2CCOCC2)n1 :: 50 to 51 °C
CC1COc2ccccc2N1C(=O)C(Cl)Cl (configuration not stated) :: 108 °C
COc1ccc2c(c1)OC1c3ccc(O)cc3OCC21 (configuration not stated) :: 128 °C
O=S1OCC2C(CO1)C1(Cl)C(Cl)=C(Cl)C2(Cl)C1(Cl)Cl (configuration not stated) :: 109 °C
Cn1nc(O)cc1C(F)(F)F :: 114 to 115 °C
Cc1ccnc(C#N)c1 :: 87 °C

Ref: a melting point compilation (Tetko et al.)
